# target_of_assay: human Cav2.2 (Homo sapiens, UniProt Q00975)
# Sequence (Q00975 whole entry): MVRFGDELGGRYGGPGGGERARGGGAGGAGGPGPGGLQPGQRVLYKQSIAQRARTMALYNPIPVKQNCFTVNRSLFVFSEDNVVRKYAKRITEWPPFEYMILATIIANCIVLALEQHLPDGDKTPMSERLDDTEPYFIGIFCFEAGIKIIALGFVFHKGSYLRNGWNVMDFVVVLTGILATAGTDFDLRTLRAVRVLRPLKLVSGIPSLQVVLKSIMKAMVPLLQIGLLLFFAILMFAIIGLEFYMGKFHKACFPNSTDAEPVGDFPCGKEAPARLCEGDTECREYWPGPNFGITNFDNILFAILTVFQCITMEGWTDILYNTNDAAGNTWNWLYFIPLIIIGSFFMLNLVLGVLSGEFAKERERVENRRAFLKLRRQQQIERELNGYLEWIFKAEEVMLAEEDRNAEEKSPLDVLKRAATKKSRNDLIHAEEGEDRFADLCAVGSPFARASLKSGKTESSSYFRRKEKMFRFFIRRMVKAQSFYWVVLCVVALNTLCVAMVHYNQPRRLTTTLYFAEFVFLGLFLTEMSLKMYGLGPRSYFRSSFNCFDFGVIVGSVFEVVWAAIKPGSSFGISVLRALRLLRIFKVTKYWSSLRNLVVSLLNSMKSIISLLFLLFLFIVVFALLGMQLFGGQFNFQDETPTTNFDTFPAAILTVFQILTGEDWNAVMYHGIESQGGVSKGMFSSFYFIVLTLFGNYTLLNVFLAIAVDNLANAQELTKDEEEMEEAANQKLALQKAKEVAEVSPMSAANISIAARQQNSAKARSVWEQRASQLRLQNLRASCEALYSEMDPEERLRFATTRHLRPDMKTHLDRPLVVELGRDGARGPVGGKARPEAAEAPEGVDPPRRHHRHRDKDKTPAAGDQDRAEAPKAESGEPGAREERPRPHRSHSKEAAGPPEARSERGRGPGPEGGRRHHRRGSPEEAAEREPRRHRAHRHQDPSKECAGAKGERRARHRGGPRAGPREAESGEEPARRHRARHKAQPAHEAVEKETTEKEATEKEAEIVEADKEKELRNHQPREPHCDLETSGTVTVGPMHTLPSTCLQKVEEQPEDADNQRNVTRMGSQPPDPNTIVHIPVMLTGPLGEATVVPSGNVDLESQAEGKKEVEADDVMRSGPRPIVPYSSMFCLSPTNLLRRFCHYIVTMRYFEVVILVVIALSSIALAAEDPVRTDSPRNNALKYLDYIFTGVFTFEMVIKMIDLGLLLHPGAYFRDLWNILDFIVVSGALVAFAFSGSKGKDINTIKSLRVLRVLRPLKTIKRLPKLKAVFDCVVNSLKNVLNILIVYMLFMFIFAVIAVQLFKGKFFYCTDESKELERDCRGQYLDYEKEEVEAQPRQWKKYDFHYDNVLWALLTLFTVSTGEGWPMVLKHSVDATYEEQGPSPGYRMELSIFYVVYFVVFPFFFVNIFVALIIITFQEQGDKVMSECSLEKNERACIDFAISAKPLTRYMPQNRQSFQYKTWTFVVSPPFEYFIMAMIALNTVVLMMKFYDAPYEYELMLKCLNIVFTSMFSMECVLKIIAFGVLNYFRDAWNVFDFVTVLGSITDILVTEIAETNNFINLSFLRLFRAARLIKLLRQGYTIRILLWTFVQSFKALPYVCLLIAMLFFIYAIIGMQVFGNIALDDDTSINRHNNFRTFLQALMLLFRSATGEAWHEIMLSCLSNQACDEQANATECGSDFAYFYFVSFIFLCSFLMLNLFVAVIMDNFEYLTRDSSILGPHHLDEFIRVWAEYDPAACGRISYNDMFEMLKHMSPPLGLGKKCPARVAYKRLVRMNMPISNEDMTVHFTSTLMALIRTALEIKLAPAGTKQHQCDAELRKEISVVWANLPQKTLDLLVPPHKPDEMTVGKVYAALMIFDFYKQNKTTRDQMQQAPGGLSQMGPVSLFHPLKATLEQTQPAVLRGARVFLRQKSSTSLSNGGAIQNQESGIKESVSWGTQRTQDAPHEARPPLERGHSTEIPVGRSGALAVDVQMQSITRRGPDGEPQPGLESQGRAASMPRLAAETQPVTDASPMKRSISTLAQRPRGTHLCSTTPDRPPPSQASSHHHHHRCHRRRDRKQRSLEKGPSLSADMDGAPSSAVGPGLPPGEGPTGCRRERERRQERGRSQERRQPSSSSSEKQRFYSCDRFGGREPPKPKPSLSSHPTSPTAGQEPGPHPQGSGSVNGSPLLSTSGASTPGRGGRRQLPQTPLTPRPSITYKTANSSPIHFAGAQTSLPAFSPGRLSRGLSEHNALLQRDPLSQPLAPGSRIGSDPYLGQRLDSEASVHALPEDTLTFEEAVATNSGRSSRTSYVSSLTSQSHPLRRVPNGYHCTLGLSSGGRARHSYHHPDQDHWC
# Sequence (P54289 25-956 partner limits assumed): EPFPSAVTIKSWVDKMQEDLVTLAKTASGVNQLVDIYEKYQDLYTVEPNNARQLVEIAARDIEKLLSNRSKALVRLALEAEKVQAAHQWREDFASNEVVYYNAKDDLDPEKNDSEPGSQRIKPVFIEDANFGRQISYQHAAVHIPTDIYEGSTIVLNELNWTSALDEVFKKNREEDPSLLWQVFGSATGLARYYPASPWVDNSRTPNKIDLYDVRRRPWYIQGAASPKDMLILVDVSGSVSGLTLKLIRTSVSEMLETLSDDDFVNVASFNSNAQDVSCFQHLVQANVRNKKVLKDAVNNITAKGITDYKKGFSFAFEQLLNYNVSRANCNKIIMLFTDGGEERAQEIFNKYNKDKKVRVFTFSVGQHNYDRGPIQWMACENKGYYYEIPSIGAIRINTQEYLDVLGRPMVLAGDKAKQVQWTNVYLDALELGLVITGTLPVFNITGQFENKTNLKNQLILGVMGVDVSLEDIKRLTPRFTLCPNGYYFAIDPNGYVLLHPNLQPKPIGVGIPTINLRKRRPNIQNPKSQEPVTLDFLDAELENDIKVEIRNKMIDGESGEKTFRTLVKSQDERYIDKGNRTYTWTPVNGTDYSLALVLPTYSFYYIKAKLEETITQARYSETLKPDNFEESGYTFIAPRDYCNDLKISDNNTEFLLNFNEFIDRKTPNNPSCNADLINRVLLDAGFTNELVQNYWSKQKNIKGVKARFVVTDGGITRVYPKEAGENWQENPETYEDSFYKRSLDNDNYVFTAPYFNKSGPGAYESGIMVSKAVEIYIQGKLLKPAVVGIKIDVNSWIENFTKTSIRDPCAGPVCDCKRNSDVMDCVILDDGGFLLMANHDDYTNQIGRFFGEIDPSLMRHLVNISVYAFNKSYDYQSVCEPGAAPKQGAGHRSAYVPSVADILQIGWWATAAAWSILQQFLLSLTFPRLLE
# Sequence (P54289 957-1103 partner limits assumed): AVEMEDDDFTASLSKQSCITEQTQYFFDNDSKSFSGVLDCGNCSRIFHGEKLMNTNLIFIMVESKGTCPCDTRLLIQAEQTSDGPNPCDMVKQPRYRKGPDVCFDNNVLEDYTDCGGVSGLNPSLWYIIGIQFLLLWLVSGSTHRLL
# Sequence (P54284 whole entry partner): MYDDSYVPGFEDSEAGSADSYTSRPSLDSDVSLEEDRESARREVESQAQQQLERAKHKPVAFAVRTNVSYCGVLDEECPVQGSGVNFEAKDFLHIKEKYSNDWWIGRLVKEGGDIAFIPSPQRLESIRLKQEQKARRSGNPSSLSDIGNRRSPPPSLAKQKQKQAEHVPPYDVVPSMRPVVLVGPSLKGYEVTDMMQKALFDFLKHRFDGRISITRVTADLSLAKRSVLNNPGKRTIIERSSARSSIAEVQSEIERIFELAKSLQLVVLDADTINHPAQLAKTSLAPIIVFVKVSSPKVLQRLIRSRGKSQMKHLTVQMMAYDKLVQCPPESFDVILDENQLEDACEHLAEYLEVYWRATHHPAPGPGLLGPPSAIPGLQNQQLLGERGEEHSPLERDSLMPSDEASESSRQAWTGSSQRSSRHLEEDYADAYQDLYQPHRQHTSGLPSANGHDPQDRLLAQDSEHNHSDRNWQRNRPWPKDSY
# experimental_details: Assessment of calcium channel activity using FLIPR (Ca2+ influx in IMR32 cells)
# Type: cell-based
Reported IC50 values follow for various compounds
measured_property: IC50 (µM)

                                   compound  censoring_qualifier  data_value
0  CN[C@@H](CC(C)C)C(=O)N[C@H]1CC[C@@H]2CN(c3cccc(Cl)c3)C[C@@H]21                    =        3.53
1  FC(F)(F)c1cccc(N2C[C@H]3CC[C@H](NCc4c[nH]cn4)[C@H]3C2)n1                    =        3.35
2  CC(C)C(C(=O)N[C@@H]1CC[C@H]2CN(Cc3ccccc3)C[C@H]21)C(C)C                    =          11
3  O=C(N[C@H]1CC[C@H]2CN(Cc3ccccc3)C[C@H]21)C1(c2ccccc2)CCCCC1 (relative stereo)                    =        1.04
4  CC(C)(C)C[C@H](N)C(=O)N[C@H]1CC[C@@H]2CN(C(=O)[C@@H](N)CC(C)(C)C)C[C@@H]21                    >          30
5  O=C(N[C@H]1CC[C@@H]2CN(c3cccc(C(F)(F)F)n3)C[C@@H]21)c1ccc(F)c(Cl)c1                    =        0.81
6  CC(C)C[C@@H](O)C(=O)N[C@H]1CC[C@@H]2CN(c3cccc(C(F)(F)F)n3)C[C@@H]21                    =           1
7  FC(F)(F)c1cccc(N2C[C@H]3CC[C@H](NCc4coc(-c5ccc(Cl)cc5)n4)[C@H]3C2)n1                    =        1.16
8  Fc1ccc2[nH]c(CN[C@H]3CC[C@@H]4CN(c5ccc(OC(F)(F)F)cc5)C[C@@H]43)cc2c1                    =        8.15
